The measured values listed here are drawn from patent US20250074911A1.

Parameter pKd: see the listing below.
assayedSystem: BTK T316A (Homo sapiens (Human), UniProt Q06187, T316A)
Sequence (Q06187 whole entry T316A): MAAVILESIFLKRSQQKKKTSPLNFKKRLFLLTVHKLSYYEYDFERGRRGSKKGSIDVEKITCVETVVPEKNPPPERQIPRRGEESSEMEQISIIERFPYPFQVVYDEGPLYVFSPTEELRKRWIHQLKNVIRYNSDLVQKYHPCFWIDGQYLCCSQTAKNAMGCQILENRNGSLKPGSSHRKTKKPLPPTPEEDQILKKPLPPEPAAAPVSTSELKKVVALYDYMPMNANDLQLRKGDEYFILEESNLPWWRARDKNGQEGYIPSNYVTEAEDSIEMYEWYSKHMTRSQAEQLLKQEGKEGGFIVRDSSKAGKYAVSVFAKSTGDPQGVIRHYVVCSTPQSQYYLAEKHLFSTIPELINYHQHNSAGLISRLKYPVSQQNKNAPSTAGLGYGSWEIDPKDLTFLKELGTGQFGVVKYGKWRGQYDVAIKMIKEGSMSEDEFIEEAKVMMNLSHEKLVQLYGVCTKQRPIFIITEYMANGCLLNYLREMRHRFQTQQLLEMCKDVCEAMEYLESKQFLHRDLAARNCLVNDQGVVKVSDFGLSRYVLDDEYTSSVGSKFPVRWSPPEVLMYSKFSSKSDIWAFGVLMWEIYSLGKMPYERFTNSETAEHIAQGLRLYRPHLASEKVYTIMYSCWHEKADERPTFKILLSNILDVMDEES
assayExplanation: Binding kinetics measurements (Surface Plasmon Resonance) on BTK T316A
reportedConditions: binding affinity by Surface Plasmon Resonance (SPR)
Experimental: Binding kinetics measurements on wt-BTK, BTK […], BTK […], BTK […] and BTK […] […] The kinetic constants of the compounds were determined with single cycle kinetics with five consecutive injections with an increasing compound concentration with ranges of 3.16-316 nM. […] The SPR sensorgrams were analyzed with Biacore Evaluation Software by using a method of double referencing. […] Target residence for an induced fit model was calculated as described (Tummino and Copeland, 2008).
pKd: −log10 of the molar value.

The following compounds have reported results that may help.
>>> valuemeasured("Nc1ncc2c3c1c(-c1ccc(C(=O)Nc4cc(C(F)(F)F)ccn4)cc1)nn3[C@@H]1CCC[C@H](C1)NC(=O)CCOC/C=C/2")
"> 8.30"
>>> valuemeasured("C[C@@H]1CC(=O)N[C@@H]2CCC[C@H](C2)n2nc(-c3ccc(C(=O)Nc4cc(C(F)(F)F)ccn4)cc3)c3c(N)ncc(c32)/C=C/CN1C")
"> 8.30"
>>> valuemeasured("Nc1ncc2c3c1c(-c1ccc(C(=O)Nc4cc(C(F)(F)F)ccn4)cc1)nn3[C@@H]1CCC[C@H](C1)C(=O)NCCCCCCC2")
"> 8.30"
>>> valuemeasured("Nc1ncc2c3c1c(-c1ccc(C(=O)Nc4cc(C(F)(F)F)ccn4)cc1)nn3[C@@H]1CCCN(C1)C(=O)CCCCCC(O)/C=C/2 (stereo partly drawn)")
"> 8.30"

[in] Assign pKd to the following record: Nc1ncc2n3c(nc(-c4ccc(C(=O)Nc5cc(C(F)(F)F)ccn5)cc4)c13)[C@@H]1CCC[C@H](C1)NC(=O)CCC/C=C\C2 [Example 133b]
[out] > 8.30

[in] Assign pKd to the following record: Nc1ncc2c3c1c(-c1ccc(C(=O)Nc4cc(C(F)(F)F)ccn4)cc1)nn3[C@@H]1CCC[C@H](C1)C(=O)NCCCCC/C=C\C2 [Example 89b]
[out] > 8.30

* * *

assayedSystem: full-length wt-BTK enzyme (Homo sapiens (Human))
Sequence (Q06187 whole entry): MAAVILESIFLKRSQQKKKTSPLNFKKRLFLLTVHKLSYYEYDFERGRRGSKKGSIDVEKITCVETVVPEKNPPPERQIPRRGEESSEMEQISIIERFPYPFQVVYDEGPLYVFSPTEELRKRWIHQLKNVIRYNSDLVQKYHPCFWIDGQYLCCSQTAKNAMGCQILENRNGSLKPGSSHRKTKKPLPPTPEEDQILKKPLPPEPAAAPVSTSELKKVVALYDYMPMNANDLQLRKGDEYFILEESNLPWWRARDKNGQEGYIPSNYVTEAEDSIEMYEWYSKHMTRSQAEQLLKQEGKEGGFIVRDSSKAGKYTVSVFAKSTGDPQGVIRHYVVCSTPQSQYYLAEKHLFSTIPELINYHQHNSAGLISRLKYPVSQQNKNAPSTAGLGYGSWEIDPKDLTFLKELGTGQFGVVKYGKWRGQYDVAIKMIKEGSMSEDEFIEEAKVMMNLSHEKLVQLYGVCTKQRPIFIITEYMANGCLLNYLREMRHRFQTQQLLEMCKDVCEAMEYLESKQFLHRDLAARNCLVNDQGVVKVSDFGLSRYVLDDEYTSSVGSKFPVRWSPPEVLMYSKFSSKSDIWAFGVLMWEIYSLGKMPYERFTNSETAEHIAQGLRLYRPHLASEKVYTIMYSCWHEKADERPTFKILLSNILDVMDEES
assayExplanation: Biochemical kinase assay wt-BTK (IMAP)
pIC50: −log10 of the molar value.
Parameter pIC50: see the listing below.

>>> valuemeasured("Nc1ncc2c3c1c(-c1ccc(C(=O)Nc4ccccn4)cc1)nn3[C@@H]1CCC[C@H](C1)NC(=O)CCCCCC2")
"7.30 to 8.30"
>>> valuemeasured("Nc1ncc2c3c1c(-c1ccc(C(=O)Nc4ccccn4)cc1)nn3[C@@H]1CCC[C@H](C1)NC(=O)COC/C=C\\C2 [Example 104b]")
"6.30 to 7.30"
>>> valuemeasured("Nc1ncc2c3c1c(-c1ccc(C(=O)Nc4cc(C(F)(F)F)ccn4)cc1)nn3[C@@H]1CCC[C@H](C1)NC(=O)COC/C=C/C2 [Example 97a]")
"7.30 to 8.30"
>>> valuemeasured("Nc1ncc2c3c1c(-c1ccc(C(=O)Nc4cc(C(F)(F)F)ccn4)cc1)nn3[C@@H]1CCCN(C1)C(=O)CCCCC/C=C/2")
"> 8.30"

[in] Answer with pIC50 of `CN1CC/C=C/c2cnc(N)c3c(-c4ccc(C(=O)Nc5cc(C(F)(F)F)ccn5)cc4)nn(c23)[C@@H]2CCC[C@H](C2)NC(=O)C1` measured for full-length wt-BTK enzyme (Homo sapiens (Human)).
[out] > 8.30

[in] Answer with pIC50 of `CN1C/C=C/c2cnc(N)c3c(-c4ccc(C(=O)Nc5cc(C(F)(F)F)ccn5)cc4)nc(n23)[C@@H]2CCCN(C2)C(=O)CCCC1` measured for full-length wt-BTK enzyme (Homo sapiens (Human)).
[out] > 8.30
